System: HOP-62
protocolNotes: NCI tumour cell line growth inhibition, 48 h
Active and inactive are the calls of the source. Rule as the data show it: active = GI50 up to about 1.1 µM and inactive = higher.
I would appreciate it if you answered using one of these outcomes: 1 (active), 0 (inactive)

Query :: Any idea what this test logged for CCc1cccc(C)c1NC(=O)C(=O)Cc1nc2ccccc2o1 ?
Result :: 0

Query :: Similarly, CCCCCCC(O)C/C=C/CCCCCC/C(C(=O)OC)=C(/O)C(=O)OCC (centres undefined) ?
Result :: 0

Query :: Repeat for the following compound: COc1ccc(/C=C\c2cc(OC)c(OC)c(OC)c2)cc1OC(=O)CCC(=O)O
Result :: 1

Query :: And the next one, CC(C)(C)OC(=O)N(CCCCNC(=O)c1ccccc1)CCCNC(=O)c1ccccc1 ?
Result :: 0

Query :: Next up: COC1=CC(=O)C2=C(C1=O)[C@H]1CC[C@]3(C)[C@@H](OC(C)=O)CC[C@H]3[C@@H]1CC2
Result :: 0

Query :: Same lookup for Nc1nc2ncc(SCc3ccc(C(=O)NC(CCC(=O)O)C(=O)O)cc3)cc2c(=O)[nH]1 (centres undefined) , please.
Result :: 0

Query :: Would you mind doing CC(=O)Nc1nc(C)c(S(=O)(=O)NC(=O)NC2NC(=O)NC2=O)s1 (centres undefined) as well?
Result :: 0

Query :: Same lookup for CCOc1cc(C2CC(c3ccc(NS(=O)(=O)c4cc([N+](=O)[O-])ccc4C)cc3)=NN2C(=O)c2ccccc2)ccc1O (centres undefined) , please.
Result :: 0

Query :: Now the compound COC(NC(=O)Nc1ccccc1C)(C(F)(F)F)C(F)(F)F
Result :: 0

* * *

Test system: NCI/ADR-RES
protocolNotes: NCI tumour cell line growth inhibition, 48 h
Active and inactive are the calls of the source. Rule as the data show it: active = GI50 up to about 1.1 µM and inactive = higher.
Allowed answers: class 1 for active, class 0 for inactive

Query :: Outcome logged for c1ccc([P+](CCNCCNCC[P+](c2ccccc2)(c2ccccc2)c2ccccc2)(c2ccccc2)c2ccccc2)cc1 in this assay:
Result :: class 0

Query :: One more compound: O=c1[nH]c(C23CC4CC(CC(C4)C2)C3)cc2c1c(=O)oc1ccccc12
Result :: class 0

Query :: Let us now turn to COc1cc2c(cc1O)C(c1cc(O)c(O)c(OC)c1)C(O)(C(=O)O)C(CO)C2O (stereo unspecified)
Result :: class 0

Query :: Another compound to look at: C=CCOC(=O)C1C2OC3(C(C(=O)OC)=C2C(=O)OC)c2ccccc2CCC13 (stereo unspecified)
Result :: class 0

Query :: Try this compound next: Cn1cc(-c2ccc(CCOC3CCCCO3)cc2)c2c(C#N)cccc21 (stereo unspecified)
Result :: class 0

Query :: What do you have for CC(/C=N/N(C)C1=NCCCCN1)=N/N(C)C1=NCCCCN1 ?
Result :: class 0

Query :: Entry to check: CCCCOc1ccc(NC(=N)Nc2ccc(Cl)cc2)cc1
Result :: class 0

Query :: Then what about the compound Cc1ccc2nc(-n3c(/C=C/c4ccccc4O)nc4ccccc4c3=O)sc2c1 ?
Result :: class 0

Query :: Field entry: CCCCCCCCCCCC(=O)OC[C@@H](C[As](=O)(O)O)OC(=O)CCCCCCCCCCC
Result :: class 0

Query :: What do you get for O=c1nc2ccc3sc4ccccc4c(=O)c3n2c(=O)[nH]1 ?
Result :: class 0

Query :: And then COc1ccc(C2=C(Cl)C(=O)N(c3ccc(OC)cc3OC)C(=O)C2(Cl)Cl)cc1 , what is it?
Result :: class 0

Query :: Try this compound too: Cc1cccc(NC(=S)N/N=C(/c2ccccc2)c2ccccn2)c1
Result :: class 1

Query :: Same again, this time with C=CCOC(OCC=C)/C(Br)=C/C
Result :: class 0

Query :: Now consider COc1cccc2c(NNc3ccccc3)c3ccc([N+](=O)[O-])cc3nc12 .
Result :: class 0

Query :: // query: O=NN(CCCl)C(=O)NCCCl [CARMUSTINE]
Result :: class 0

Query :: Cool, now COC1=CC(=O)c2c(cc(COP(N)(=O)N(CCBr)CCBr)n2C)C1=O (stereo unspecified)
Result :: class 1

Query :: Also check Cc1cc(N(CCC#N)CCC#N)ccc1C(=N/NC(=O)c1cc(Cl)ccc1O)/N=N/c1cccc([N+](=O)[O-])c1
Result :: class 0

Query :: Try this compound next: CCCC(CCC(=O)O)(CCC(=O)O)[N+](=O)[O-]
Result :: class 0

Query :: Can you handle CC1C(=NO)C(C)C(c2ccccc2)N(N=O)C1c1ccccc1 (stereo unspecified) next?
Result :: class 0

Query :: How about COC(NC(=O)Nc1ccccc1C)(C(F)(F)F)C(F)(F)F ?
Result :: class 0

Query :: What about C=C1c2nc3ccccc3n2C=C(c2ccc(C)cc2)N1c1ccc(OC)cc1 ?
Result :: class 0
